Biological target: MMP-2 (gelatinase A) (Homo sapiens, UniProt P08253)
Assay: MMP-2 (gelatinase A) inhibitory activity, FITC-labeled type IV collagen degradation
Conditions: 50% inhibition of collagen type IV degradation; activated pro MMP-2 from transfected COS-1 cells; 42° C., 4 h
pIC50: −log10 of the molar value.
MEASUREMENT KIND: pIC50

CNC(=O)[C@H](Cc1ccccc1)NC(=O)[C@H](CCOc1ccc(OC)cc1)CC(=O)NO
7.89
CNC(=O)[C@@H](NC(=O)[C@H](CCCOc1ccc(OC)cc1)CC(=O)O)C(C)(C)C
6.85

[1] CCOc1ccc(C[C@H](NC(=O)[C@H](CCCOc2ccc(OC)cc2)CC(=O)O)C(=O)NC)cc1
[2] CCOc1ccc(C[C@H](NC(=O)[C@H](CCc2ccc3cccccc2-3)CC(=O)O)C(=O)NC)cc1
Could you tell me which of 1 and 2 has the lower pIC50 reading? # reply format: chosen label
2

###

Target: UniProt P08253
Experiment: MMP-2 (gelatinase A) inhibitory activity, FITC-labeled type IV collagen degradation
Settings: 50% inhibition of collagen type IV degradation; activated pro MMP-2 from transfected COS-1 cells; 42° C., 4 h
pIC50: −log10 of the molar value.
MEASUREMENT KIND: pIC50

[P] CCOc1ccc(OCCCC[C@H](CC(=O)NO)C(=O)N[C@@H](Cc2ccccc2)C(=O)NC)cc1 [Compound 45]
[Q] CNC(=O)[C@H](Cc1ccc(OC)cc1)NC(=O)[C@H](CCCCOc1ccc(OC)cc1)CC(=O)OCc1oc(=O)oc1C [Compound 64]
[R] CNC(=O)[C@@H]1Cc2ccccc2CN1C(=O)[C@H](CCCOc1ccc(OC)cc1)CC(=O)NO [Compound 57]
hey, can you rank those compounds up there by pIC50? biggest number first please Please reply with the labels ordered as requested. Many thanks.
P, R, Q
(P: 8.40, R: 7.43, Q: 5.64)

###

Molecular target: UniProt:P08253
Assay: MMP-2 (gelatinase A) inhibitory activity, FITC-labeled type IV collagen degradation
Conditions: 50% inhibition of collagen type IV degradation; activated pro MMP-2 from transfected COS-1 cells; 42° C., 4 h
Experimental: Experiment 2: MMP-2 (gelatinase A) and MMP-9 (gelatinase B) inhibitory activities. Pro MMP-2 was obtained from culture medium separated from human pro-MMP-2 cDNA tranfected COS-1 cells. […] Inhibitory activity of compound was evaluated by same as that of MMP-1 assay. Unchanged type IV collagen was precipitated by centrifugation, and the degradation percent of substrate was calculated by comparison with a fluorescence intensity of heat denatured substrate as 100%. […]
MEASUREMENT KIND: IC50 (nM)

CCOc1ccc(OCCC[C@H](CC(=O)OCc2oc(=O)oc2C)C(=O)N[C@@H](Cc2ccccc2)C(=O)NC)cc1
500
CNC(=O)[C@H](Cc1ccccc1)NC(=O)[C@H](CCCCc1ccc2cccccc1-2)CC(=O)NO
2700
COc1ccc(C[C@H](NC(=O)[C@H](CCCOc2ccc(OC)cc2)CC(=O)O)C(=O)NC(C)(C)C)cc1
76
CNC(=O)[C@H](Cc1ccc(OC)cc1)NC(=O)[C@H](CCCCOc1ccc(OC)cc1)CC(=O)O
160
COc1ccc(OCCC[C@H](CC(=O)NO)C(=O)N[C@@H](Cc2ccccc2)C(=O)NC(C)(C)C)cc1
3.1

[P] CNC(=O)[C@H](Cc1ccc(OC)cc1)NC(=O)[C@H](CCc1ccc2cccccc1-2)CC(=O)O
[Q] CNC(=O)[C@@H](NC(=O)[C@H](CCc1ccc2cccccc1-2)CC(=O)O)C(C)(C)C
Could you tell me which of P and Q has the lower IC50 reading? # reply format: chosen label
P
(P: 240 nM, Q: 1000 nM)

###

Biological target: MMP-2 (gelatinase A) (Homo sapiens, UniProt P08253)
Assay: MMP-2 (gelatinase A) inhibitory activity, FITC-labeled type IV collagen degradation
Conditions: 50% inhibition of collagen type IV degradation; activated pro MMP-2 from transfected COS-1 cells; 42° C., 4 h
pIC50: −log10 of the molar value.
MEASUREMENT KIND: pIC50

// worked examples, pIC50 included
COc1ccc(OCCC[C@H](CC(=O)O)C(=O)N[C@H](C(=O)NC(C)(C)C)C(C)(C)C)cc1 [Compound 25]
6.70
CCOc1ccc(C[C@H](NC(=O)[C@H](CCCCOc2ccc(OC)cc2)CC(=O)O)C(=O)NC)cc1 [Compound 23]
6.70

[P] COc1ccc(C[C@H](NC(=O)[C@H](CCCOc2ccc(OC)cc2)CC(=O)NO)C(=O)NC(C)(C)C)cc1 [Compound 49]
[Q] CNC(=O)[C@H](Cc1ccc(OC)cc1)NC(=O)[C@@H](CC(=O)NO)CC(C)(C)COC [Compound 59]
Determine, for P and Q , which has the greater value of pIC50. # reply format: chosen label
P

###

Biological target: UniProtKB P08253
Sequence (P08253 110-660): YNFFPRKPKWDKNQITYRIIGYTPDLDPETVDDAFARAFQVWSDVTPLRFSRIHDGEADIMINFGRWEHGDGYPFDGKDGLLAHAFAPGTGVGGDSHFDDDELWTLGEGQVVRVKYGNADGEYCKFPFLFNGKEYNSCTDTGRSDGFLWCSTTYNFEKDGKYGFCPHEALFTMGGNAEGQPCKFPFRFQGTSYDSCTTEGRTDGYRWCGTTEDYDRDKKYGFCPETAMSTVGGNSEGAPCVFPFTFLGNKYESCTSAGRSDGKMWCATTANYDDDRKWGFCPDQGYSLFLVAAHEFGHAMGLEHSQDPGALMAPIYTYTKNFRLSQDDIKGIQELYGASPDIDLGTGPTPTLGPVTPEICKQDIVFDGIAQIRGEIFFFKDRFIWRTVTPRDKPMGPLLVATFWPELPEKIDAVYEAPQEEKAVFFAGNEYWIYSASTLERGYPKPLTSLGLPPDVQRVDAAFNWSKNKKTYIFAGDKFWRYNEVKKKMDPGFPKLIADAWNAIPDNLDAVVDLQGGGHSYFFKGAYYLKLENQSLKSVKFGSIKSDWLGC
Assay: MMP-2 (gelatinase A) inhibitory activity, FITC-labeled type IV collagen degradation
Conditions: 50% inhibition of collagen type IV degradation; activated pro MMP-2 from transfected COS-1 cells; 42° C., 4 h
Experimental: Experiment 2: MMP-2 (gelatinase A) and MMP-9 (gelatinase B) inhibitory activities. Pro MMP-2 was obtained from culture medium separated from human pro-MMP-2 cDNA tranfected COS-1 cells. […] Inhibitory activity of compound was evaluated by same as that of MMP-1 assay. Unchanged type IV collagen was precipitated by centrifugation, and the degradation percent of substrate was calculated by comparison with a fluorescence intensity of heat denatured substrate as 100%. […]
MEASUREMENT KIND: IC50 (nM)

[P] CNC(=O)[C@@H](NC(=O)[C@H](CCc1ccc2cccccc1-2)CC(=O)NO)C(C)(C)C
[Q] CNC(=O)[C@H](Cc1ccccc1)NC(=O)[C@H](CCCOc1ccc(OC)cc1)CC(=O)O
Could you tell me which of P and Q has the lower IC50 reading? # reply format: chosen label
Q
(Q: 50 nM, P: 760 nM)

[I] CNC(=O)[C@H](Cc1ccc(OC)cc1)NC(=O)[C@H](CCCOc1ccc(OC)cc1)CC(=O)O
[II] CNC(=O)[C@H](Cc1ccccc1)NC(=O)[C@H](CCc1ccc2cccccc1-2)CC(=O)O
[III] CCOc1ccc(OCC[C@H](CC(=O)NO)C(=O)N[C@@H](Cc2ccccc2)C(=O)NC)cc1
[IV] CNC(=O)[C@H](Cc1ccc(OC)cc1)NC(=O)[C@H](CCCCOc1ccc(OC)cc1)CC(=O)NO
Put the items in order so that reported IC50 rises from first to last. Please reply with the labels ordered as requested. Many thanks.
IV, III, I, II
(IV: 2.5 nM, III: 8.8 nM, I: 250 nM, II: 390 nM)

###

Target: MMP-9 (gelatinase B) (Homo sapiens, UniProt P14780)
Sequence (P14780 94-707): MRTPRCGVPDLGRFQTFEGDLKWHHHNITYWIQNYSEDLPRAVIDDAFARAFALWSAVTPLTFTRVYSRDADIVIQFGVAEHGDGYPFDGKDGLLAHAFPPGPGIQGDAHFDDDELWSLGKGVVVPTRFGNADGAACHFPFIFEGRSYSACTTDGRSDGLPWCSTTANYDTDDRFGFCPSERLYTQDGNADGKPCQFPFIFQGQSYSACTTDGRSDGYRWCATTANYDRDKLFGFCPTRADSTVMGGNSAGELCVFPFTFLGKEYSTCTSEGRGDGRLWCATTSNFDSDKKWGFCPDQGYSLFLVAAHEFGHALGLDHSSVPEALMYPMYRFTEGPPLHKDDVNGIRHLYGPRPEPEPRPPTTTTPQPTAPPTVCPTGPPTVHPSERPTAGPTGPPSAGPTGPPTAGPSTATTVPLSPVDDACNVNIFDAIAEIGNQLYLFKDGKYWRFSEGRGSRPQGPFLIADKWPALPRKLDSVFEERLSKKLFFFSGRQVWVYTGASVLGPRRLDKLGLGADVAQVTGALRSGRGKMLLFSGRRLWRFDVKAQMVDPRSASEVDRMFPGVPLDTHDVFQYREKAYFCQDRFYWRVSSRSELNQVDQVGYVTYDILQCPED
Experiment: MMP-9 (gelatinase B) inhibitory activity, FITC-labeled type IV collagen degradation
Details: 50% inhibition of collagen type IV degradation; MMP-9 derived from human fibrosarcoma; 42° C., 4 h
MEASUREMENT KIND: IC50 (nM)

// worked examples, IC50 included
COc1ccc(OCCC[C@H](CC(=O)O)C(=O)N[C@H](C(=O)NC(C)(C)C)C(C)(C)C)cc1
28
CNC(=O)[C@@H](NC(=O)[C@H](CCCOc1ccc(OC)cc1)CC(=O)O)C(C)(C)C
7.2
COc1ccc(OCCC[C@H](CC(=O)NO)C(=O)N[C@H](C(=O)NCCS(N)(=O)=O)C(C)(C)C)cc1
0.26
COc1ccc(OCCC[C@H](CC(=O)O)C(=O)N[C@H](C(=O)NCCS(N)(=O)=O)C(C)(C)C)cc1
6.5
CNC(=O)[C@H](Cc1ccc(OC)cc1)NC(=O)[C@H](CCCOc1ccc(OC)cc1)CC(=O)OCc1oc(=O)oc1C
140

[A] CNC(=O)[C@H](Cc1ccccc1)NC(=O)[C@@H](CC(=O)NO)CC(C)(C)COC
[B] CNC(=O)[C@@H]1Cc2ccccc2CN1C(=O)[C@H](CCCOc1ccc(OC)cc1)CC(=O)O
[C] COc1ccc(OCCC[C@H](CC(=O)O)C(=O)N[C@@H](Cc2ccccc2)C(=O)NC(C)(C)C)cc1
[D] CCOc1ccc(C[C@H](NC(=O)[C@H](CCc2ccc3cccccc2-3)CC(=O)O)C(=O)NC)cc1
[E] CCOc1ccc(OCC[C@H](CC(=O)NO)C(=O)N[C@@H](Cc2ccccc2)C(=O)NC)cc1
Put the items in order so that reported IC50 rises from first to last. Please reply with the labels ordered as requested. Many thanks.
E, C, D, B, A
